Test system: Trichophyton tonsurans
assay_overview: checkerboard drug interaction (FICI, MICc);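 note: simplified diagonal checkerboard screen combining antifungals with FPPS inhibitors, with FICI calculated under the Loewe additivity model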
Type: cell-based
applied_conditions: in combination with ZOL
property_measured: antifungal MICc
Please reply with the number alone, leaving off any unit.

• OC(Cn1cncn1)(Cn1cncn1)c1ccc(F)cc1F = 32
• Nc1nc(=O)[nH]cc1F = 64
• CC(=O)N1CCN(c2ccc(OCC3COC(Cn4ccnc4)(c4ccc(Cl)cc4Cl)O3)cc2)CC1 (stereo not shown) = 0.5
• C[C@@H](c1ncncc1F)[C@](O)(Cn1cncn1)c1ccc(F)cc1F = 0.0625
• CC[C@H](C)C[C@H](C)CCCCCCCCC(=O)N[C@H]1C[C@@H](O)[C@@H](NCCN)NC(=O)[C@@H]2[C@@H](O)CCN2C(=O)[C@H]([C@H](O)CCN)NC(=O)[C@H]([C@H](O)[C@@H](O)c2ccc(O)cc2)NC(=O)[C@@H]2C[C@@H](O)CN2C(=O)[C@H]([C@@H](C)O)NC1=O = 0.25
• CCC(C)n1ncn(-c2ccc(N3CCN(c4ccc(OCC5COC(Cn6cncn6)(c6ccc(Cl)cc6Cl)O5)cc4)CC3)cc2)c1=O (stereo not shown) = 0.25

Please find the next compound below.
The reported antifungal MICc of the compound `C[C@@H]1[C@H](O)[C@@H](C)/C=C/C=C/C=C/C=C/C=C/C=C/C=C/[C@H](O[C@@H]2O[C@H](C)[C@@H](O)[C@H](N)[C@@H]2O)C[C@@H]2O[C@](O)(C[C@@H](O)C[C@@H](O)[C@H](O)CC[C@@H](O)C[C@@H](O)CC(=O)O[C@H]1C)C[C@H](O)[C@H]2C(=O)O` was 0.25

====

System: Candida glabrata
assay_overview: checkerboard drug interaction (FICI, MICc)
Type: cell-based
applied_conditions: C. glabrata; ITR:INH combination; fold decrease of ITR MIC
Below, each entry is listed alongside its reported ITR FD (MIC-MICc fold decrease).
Please reply with the number alone, leaving off any unit.

* CCCCCCCCCCCCN1CCC[C@H]1C(=O)N[C@H](CC(=O)OC)C(=O)OC | 2
* CCCCCCCCCN1CCC[C@H]1C(=O)N[C@@H](CC(=O)OC)C(=O)OC | 1
* O=P(O)(O)C(O)(Cn1ccnc1)P(=O)(O)O [ZOL, zoledronate] | 8
* CCCCCCCCCCCCN1CCC[C@H]1C(=O)N[C@H](CC(=O)O)C(=O)O | 4
* CCCCCCCCCCN1CCC[C@H]1C(=O)N[C@@H](CC(=O)OC)C(=O)OC | 2

The reported ITR FD (MIC-MICc fold decrease) of the compound `CCCCCCCCCCCN1CCC[C@H]1C(=O)N[C@H](CC(=O)O)C(=O)O` was 4

The reported ITR FD (MIC-MICc fold decrease) of the compound `CCCCCCCCCCN1CCC[C@H]1C(=O)N[C@H](CC(=O)OC)C(=O)OC` was 1

The reported ITR FD (MIC-MICc fold decrease) of the compound `CCCCCCCCCCCN1CCC[C@H]1C(=O)N[C@@H](CC(=O)O)C(=O)O` was 4

The reported ITR FD (MIC-MICc fold decrease) of the compound `CCCCCCCCCN1CCC[C@H]1C(=O)N[C@H](CC(=O)OC)C(=O)OC` was 1

====

Tested on: Cryptococcus deuterogattii
assay_overview: checkerboard drug interaction (FICI, MICc);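 note: simplified diagonal checkerboard screen pairing antifungal drugs with FPPS inhibitors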
Type: cell-based
applied_conditions: C. deuterogattii; FLC:INH combination; fold decrease of FLC MIC
Below, each entry is listed alongside its reported FLC FD (MIC-MICc fold decrease).
Please reply with the number alone, leaving off any unit.

Worked examples follow.
• CCCCCCCCCCCN1CCC[C@H]1C(=O)N[C@H](CC(=O)O)C(=O)O [PDA11] = -4
• CCCCCCCCCN1CCC[C@H]1C(=O)N[C@H](CC(=O)OC)C(=O)OC [dmPDA9] = -2
• CCCCCCCCCCCN1CCC[C@H]1C(=O)N[C@H](CC(=O)OC)C(=O)OC [dmPDA11] = 2
• CCCCCCCCCCN1CCC[C@H]1C(=O)N[C@@H](CC(=O)OC)C(=O)OC [dmPLA10] = 8
• CCCCCCCCCCCN1CCC[C@H]1C(=O)N[C@@H](CC(=O)O)C(=O)O [PLA11] = -4
• CCCCCCCCCCCCN1CCC[C@H]1C(=O)N[C@@H](CC(=O)OC)C(=O)OC [dmPLA12] = 4

The reported FLC FD (MIC-MICc fold decrease) of the molecule O=P(O)(O)C(O)(Cn1ccnc1)P(=O)(O)O [ZOL, zoledronate] was 8

The reported FLC FD (MIC-MICc fold decrease) of the molecule CCCCCCCCCN1CCC[C@H]1C(=O)N[C@@H](CC(=O)OC)C(=O)OC [dmPLA9] was -2

The reported FLC FD (MIC-MICc fold decrease) of the molecule CCCCCCCCCCCCN1CCC[C@H]1C(=O)N[C@H](CC(=O)OC)C(=O)OC [dmPDA12] was 1

The reported FLC FD (MIC-MICc fold decrease) of the molecule CCCCCCCCCCCCN1CCC[C@H]1C(=O)N[C@H](CC(=O)O)C(=O)O [PDA12] was -2

The reported FLC FD (MIC-MICc fold decrease) of the molecule CCCCCCCCCCCN1CCC[C@H]1C(=O)N[C@@H](CC(=O)OC)C(=O)OC [dmPLA11] was 2
